- target.desc: HDAC8 (Homo sapiens)
- Construct: Recombinant, full-length HDAC protein (BPS Biosciences) was incubated with fluorophore conjugated substrate
- Sequence (Q9BY41 1-377): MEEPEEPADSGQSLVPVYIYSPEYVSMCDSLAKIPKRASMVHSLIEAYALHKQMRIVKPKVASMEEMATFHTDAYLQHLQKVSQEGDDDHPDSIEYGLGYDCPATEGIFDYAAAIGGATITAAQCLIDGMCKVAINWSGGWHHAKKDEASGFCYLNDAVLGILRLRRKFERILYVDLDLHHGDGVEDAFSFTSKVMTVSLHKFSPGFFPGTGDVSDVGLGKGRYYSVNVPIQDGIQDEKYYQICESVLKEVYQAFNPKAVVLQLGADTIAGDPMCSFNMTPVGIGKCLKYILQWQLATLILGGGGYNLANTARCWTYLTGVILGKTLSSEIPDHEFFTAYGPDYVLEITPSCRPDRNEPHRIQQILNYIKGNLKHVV
- experiment.notes: In vitro HDAC enzyme inhibition assay, HDAC8
- experimental.context: recombinant full-length HDAC8, substrate MAZ1675 282 μM
assay.endpoint: IC50

In the examples that follow, each entry is paired with its recorded IC50.
O=C(NO)c1ccc(Cn2c(=O)[nH]c3cc(C(F)(F)F)ccc32)cc1; 302 nM
O=C(NO)c1ccc(Cn2cnc3cc(Cl)ccc32)cc1; 519 nM
O=C(NO)c1ccc(Cn2c(C(F)(F)F)nc3cc(F)ccc32)cc1; 1460 nM
Cc1ccc2c(c1)nc(C(F)(F)F)n2Cc1ccc(C(=O)NO)cc1; 1330 nM

Now take the following molecule into account.
Give recorded IC50 with HDAC8 (Homo sapiens) for the following molecule: Cc1ccc2c(c1)ncn2Cc1ccc(C(=O)NO)cc1
1080 nM

---

- target.desc: HDAC4 (Homo sapiens, UniProt P56524)
- Construct: Recombinant, full-length HDAC protein (BPS Biosciences) was incubated with fluorophore conjugated substrate
- Sequence (P56524 whole entry): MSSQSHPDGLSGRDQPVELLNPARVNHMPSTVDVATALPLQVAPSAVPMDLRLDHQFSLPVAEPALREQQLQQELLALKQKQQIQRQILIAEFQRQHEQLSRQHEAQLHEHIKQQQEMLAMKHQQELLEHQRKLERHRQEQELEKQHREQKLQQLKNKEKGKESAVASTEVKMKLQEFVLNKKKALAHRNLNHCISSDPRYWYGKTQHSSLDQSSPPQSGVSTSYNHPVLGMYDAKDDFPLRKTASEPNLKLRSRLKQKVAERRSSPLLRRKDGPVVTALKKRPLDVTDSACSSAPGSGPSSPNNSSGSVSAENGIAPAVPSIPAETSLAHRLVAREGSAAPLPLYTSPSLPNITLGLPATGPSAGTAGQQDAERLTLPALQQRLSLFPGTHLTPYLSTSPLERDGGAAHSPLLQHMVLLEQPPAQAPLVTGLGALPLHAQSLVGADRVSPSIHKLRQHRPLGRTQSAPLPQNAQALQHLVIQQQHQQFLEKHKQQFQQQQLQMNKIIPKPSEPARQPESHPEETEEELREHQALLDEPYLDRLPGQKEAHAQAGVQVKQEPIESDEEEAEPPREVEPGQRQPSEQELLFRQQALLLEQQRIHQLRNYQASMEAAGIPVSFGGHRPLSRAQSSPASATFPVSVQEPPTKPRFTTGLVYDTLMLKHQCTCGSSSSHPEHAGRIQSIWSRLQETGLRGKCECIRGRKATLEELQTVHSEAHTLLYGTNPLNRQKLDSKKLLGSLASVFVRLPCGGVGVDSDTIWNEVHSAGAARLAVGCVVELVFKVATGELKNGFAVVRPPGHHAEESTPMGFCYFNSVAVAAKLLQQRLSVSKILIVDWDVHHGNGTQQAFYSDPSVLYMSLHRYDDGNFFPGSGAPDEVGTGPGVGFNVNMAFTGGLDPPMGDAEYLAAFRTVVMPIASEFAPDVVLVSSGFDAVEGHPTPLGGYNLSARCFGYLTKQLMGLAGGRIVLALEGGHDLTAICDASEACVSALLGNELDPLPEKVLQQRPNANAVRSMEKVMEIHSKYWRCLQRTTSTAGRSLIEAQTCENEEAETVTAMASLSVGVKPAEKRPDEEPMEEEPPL
- experiment.notes: In vitro HDAC enzyme inhibition assay, HDAC4
- experimental.context: recombinant full-length HDAC4, substrate MAZ1675 10 μM
assay.endpoint: pIC50
Quick note: pIC50 values are minus log10 of concentrations in mol/L.

Cc1ccc2c(c1)ncn2Cc1ccc(C(=O)NO)cc1; 5.56
O=C(NO)c1ccc(Cn2cnc3cc(Cl)ccc32)cc1; 5.83
O=C(NO)c1ccc(Cn2cnc3cc(F)ccc32)cc1; 5.72
O=C(NO)c1ccc(Cn2c(C(F)(F)F)nc3cc(Br)ccc32)cc1; 6.06
O=C(NO)c1ccc(Cn2cnc3ccccc32)cc1; 5.76

Now, please, on to the next compound.
Would you mind telling me what pIC50 value was observed for O=C(NO)c1ccc(Cn2nnc3cc(F)ccc32)cc1 ?
5.67

---

- target.desc: HDAC7 (Homo sapiens)
- Construct: Recombinant, full-length HDAC protein (BPS Biosciences) was incubated with fluorophore conjugated substrate
- Sequence (Q8WUI4 whole entry): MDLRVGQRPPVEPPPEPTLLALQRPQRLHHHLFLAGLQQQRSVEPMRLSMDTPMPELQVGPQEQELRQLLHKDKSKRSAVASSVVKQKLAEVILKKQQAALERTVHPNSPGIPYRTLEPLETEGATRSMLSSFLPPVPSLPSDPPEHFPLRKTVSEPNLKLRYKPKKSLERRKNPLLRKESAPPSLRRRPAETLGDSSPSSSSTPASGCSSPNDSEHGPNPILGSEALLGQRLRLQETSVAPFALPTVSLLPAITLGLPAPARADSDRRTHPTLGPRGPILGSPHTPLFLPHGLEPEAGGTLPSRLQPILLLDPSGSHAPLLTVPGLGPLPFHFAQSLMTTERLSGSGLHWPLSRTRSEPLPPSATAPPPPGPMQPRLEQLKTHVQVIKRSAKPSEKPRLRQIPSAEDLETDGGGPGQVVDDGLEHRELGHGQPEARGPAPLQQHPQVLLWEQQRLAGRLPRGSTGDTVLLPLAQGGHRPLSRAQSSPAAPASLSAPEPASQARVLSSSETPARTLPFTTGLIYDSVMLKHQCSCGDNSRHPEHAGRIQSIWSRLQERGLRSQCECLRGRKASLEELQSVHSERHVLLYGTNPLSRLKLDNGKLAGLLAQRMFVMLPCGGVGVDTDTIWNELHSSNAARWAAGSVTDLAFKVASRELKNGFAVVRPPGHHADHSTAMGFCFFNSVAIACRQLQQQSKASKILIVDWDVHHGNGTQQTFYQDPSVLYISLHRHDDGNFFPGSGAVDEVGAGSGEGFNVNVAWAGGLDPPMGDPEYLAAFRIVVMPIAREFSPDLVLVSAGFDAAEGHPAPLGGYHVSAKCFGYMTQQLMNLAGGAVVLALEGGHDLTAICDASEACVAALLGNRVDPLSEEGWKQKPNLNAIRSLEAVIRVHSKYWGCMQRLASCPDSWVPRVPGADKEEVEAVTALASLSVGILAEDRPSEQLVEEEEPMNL
- experiment.notes: In vitro HDAC enzyme inhibition assay, HDAC7
- experimental.context: recombinant full-length HDAC7, substrate MAZ1675 22 μM
assay.endpoint: IC50 (nM)
Express your answer in nM, writing the number without its unit.

O=C(NO)c1ccc(Cn2c(=O)[nH]c3cc(Br)ccc32)cc1; 190
O=C(NO)c1ccc(Cn2cnc3ccccc32)cc1; 255
Cc1ccc2c(c1)[nH]c(=O)n2Cc1ccc(C(=O)NO)cc1; 159
COc1ccc2c(c1)ncn2Cc1ccc(C(=O)NO)cc1; 883
O=C(NO)c1ccc(Cn2nnc3cc(Br)ccc32)cc1; 305

Fill blank: measured IC50 of the compound COc1ccc2c(c1)nc(C(F)(F)F)n2Cc1ccc(C(=O)NO)cc1 is ____.
414

Given the compound O=C(NO)c1ccc(Cn2nnc3ccccc32)cc1 , what is its reported IC50?
148
